Every entry's value here was drawn from the supplement of paper PMC6004109.

List of Bliss independence sum values.
Tested on: Saccharomyces cerevisiae ZIM 2566 (RPMI)
test: Bliss independence sum of statistically significant ΔE (measured minus predicted growth inhibition) over checkerboard surface (fraction (sum of ΔE; 1 = 100%)); higher = more synergy
stated_conditions: temperature: 37 °C

CC1(C)S[C@@H]2[C@H](NC(=O)[C@H](N)c3ccc(O)cc3)C(=O)N2[C@H]1C(=O)O [amoxicillin] + C[C@@H]1[C@H](O)[C@@H](C)/C=C/C=C/C=C/C=C/C=C/C=C/C=C/[C@H](O[C@@H]2O[C@H](C)[C@@H](O)[C@H](N)[C@@H]2O)C[C@@H]2O[C@](O)(C[C@@H](O)C[C@@H](O)[C@H](O)CC[C@@H](O)C[C@@H](O)CC(=O)O[C@H]1C)C[C@H](O)[C@H]2C(=O)O [amphotericin B] : -0.244

Give its Bliss independence sum value. Item: C=CC[C@@H]1/C=C(\C)C[C@H](C)C[C@H](OC)[C@H]2O[C@@](O)(C(=O)C(=O)N3CCCC[C@H]3C(=O)O[C@H](/C(C)=C/[C@@H]3CC[C@@H](O)[C@H](OC)C3)[C@H](C)[C@@H](O)CC1=O)[C@H](C)C[C@@H]2OC [tacrolimus] + CCC(C)n1ncn(-c2ccc(N3CCN(c4ccc(OCC5COC(Cn6cncn6)(c6ccc(Cl)cc6Cl)O5)cc4)CC3)cc2)c1=O [itraconazole]
9.53

Give its Bliss independence sum value. Item: CC1(C)S[C@@H]2[C@H](NC(=O)[C@H](N)c3ccc(O)cc3)C(=O)N2[C@H]1C(=O)O [amoxicillin] + CCC(C)n1ncn(-c2ccc(N3CCN(c4ccc(OCC5COC(Cn6cncn6)(c6ccc(Cl)cc6Cl)O5)cc4)CC3)cc2)c1=O [itraconazole]
-0.787

###

System: Saccharomyces cerevisiae ZIM 2255 (RPMI)
test: FICI maximum (fractional inhibitory concentration index, Loewe) (dimensionless); higher = less synergy / more antagonism
stated_conditions: temperature: 37 °C
outcome_measure: FICI maximum
# respond with the number and nothing more

Give its FICI maximum value. Item: COc1c(C)c2c(c(O)c1C/C=C(\C)CCC(=O)O)C(=O)OC2 [mycophenolic acid] + CCC(C)n1ncn(-c2ccc(N3CCN(c4ccc(OCC5COC(Cn6cncn6)(c6ccc(Cl)cc6Cl)O5)cc4)CC3)cc2)c1=O [itraconazole]
1.13

###

List of Bliss independence sum values.
Test system: Candida glabrata ZIM 2344 (RPMI)
test: Bliss independence sum of statistically significant ΔE (measured minus predicted growth inhibition) over checkerboard surface (fraction (sum of ΔE; 1 = 100%)); higher = more synergy
stated_conditions: temperature: 37 °C
# respond with the number and nothing more

CC1(C)S[C@@H]2[C@H](NC(=O)[C@H](N)c3ccc(O)cc3)C(=O)N2[C@H]1C(=O)O [amoxicillin] + OC(Cn1cncn1)(Cn1cncn1)c1ccc(F)cc1F [fluconazole] : 0.963
C=CC[C@@H]1/C=C(\C)C[C@H](C)C[C@H](OC)[C@H]2O[C@@](O)(C(=O)C(=O)N3CCCC[C@H]3C(=O)O[C@H](/C(C)=C/[C@@H]3CC[C@@H](O)[C@H](OC)C3)[C@H](C)[C@@H](O)CC1=O)[C@H](C)C[C@@H]2OC [tacrolimus] + CCC(C)n1ncn(-c2ccc(N3CCN(c4ccc(OCC5COC(Cn6cncn6)(c6ccc(Cl)cc6Cl)O5)cc4)CC3)cc2)c1=O [itraconazole] : 5.44

Here is the next item to consider.
Give its Bliss independence sum value. Item: COc1c(C)c2c(c(O)c1C/C=C(\C)CCC(=O)O)C(=O)OC2 [mycophenolic acid] + C[C@@H]1[C@H](O)[C@@H](C)/C=C/C=C/C=C/C=C/C=C/C=C/C=C/[C@H](O[C@@H]2O[C@H](C)[C@@H](O)[C@H](N)[C@@H]2O)C[C@@H]2O[C@](O)(C[C@@H](O)C[C@@H](O)[C@H](O)CC[C@@H](O)C[C@@H](O)CC(=O)O[C@H]1C)C[C@H](O)[C@H]2C(=O)O [amphotericin B]
4.74
